molecular target: neuraminidase; settings: in vitro enzyme inhibition; class symbols
pIC50: −log10 of the molar value.
List of pIC50 values.
Assay Endpoint: pIC50

molecule="CCc1cc(C(=O)O)cc(NC(=N)N)c1NC(C)=O [Compound 213]" observed_measurement="4.00 to 4.12"
molecule="N=C(N)Nc1cc(C(=O)O)ccc1NC(=O)C(F)(F)F [Compound 208]" observed_measurement="4.12 to 4.70"
